Values from patent US10940139B2

Consider the following compounds; for each one, report its inhibition at 30 µM.
system: TNFα production in RAW 264.7 macrophage cell line; assay: Mouse TNF alpha quantification assay (LPS-stimulated macrophages, ELISA); format: cell-based; settings: RAW264.7, RAW 264.7 murine leukemia virus transformed macrophage cell lines, LPS stimulation, read-out: TNF-α % Inhibition at 30 μM

Short answer on TNFα production in RAW 264.7 macrophage cell line for Cc1sc2c(O)nc(-c3nccn3C)nc2c1-c1ccc(OC(C)C)c(F)c1 [drawing 2437] , inhibition at 30 µM: 0%

Short answer on TNFα production in RAW 264.7 macrophage cell line for Cn1ccnc1-c1nc(O)c2c(-c3ccccc3)c(-c3ccccc3)sc2n1 [drawing 2363] , inhibition at 30 µM: 26 to 50%

Short answer on TNFα production in RAW 264.7 macrophage cell line for O=C(Cc1ccc(-n2cnnn2)cc1)Nc1nnc(-c2ccccn2)[nH]1 [drawing 1927] , inhibition at 30 µM: 1 to 25%

Short answer on TNFα production in RAW 264.7 macrophage cell line for O=C(Nc1nc(-c2ccccn2)cs1)c1ccncc1 [drawing 2019] , inhibition at 30 µM: 1 to 25%

Short answer on TNFα production in RAW 264.7 macrophage cell line for COCCNc1nc(-c2ccncn2)nc2sc(-c3ccccc3)c(-c3ccccc3)c12 [drawing 2401] , inhibition at 30 µM: 51 to 75%

Short answer on TNFα production in RAW 264.7 macrophage cell line for Nc1nc(-c2ccccn2)nc2scc(C(=O)O)c12 [drawing 2298] , inhibition at 30 µM: 1 to 25%

Short answer on TNFα production in RAW 264.7 macrophage cell line for O=C(COCCOc1ccccc1)Nc1nnc(-c2ccccn2)[nH]1 [drawing 2005] , inhibition at 30 µM: 1 to 25%

Short answer on TNFα production in RAW 264.7 macrophage cell line for COc1ccc(CCC(=O)Nc2nnc(-c3ccccn3)[nH]2)cc1 [drawing 1939] , inhibition at 30 µM: 0%

Short answer on TNFα production in RAW 264.7 macrophage cell line for COc1cccc(CC2CN(C(=O)c3csc4c(O)nc(-c5ccccn5)nc34)CCN2)c1 (stereo not drawn) [drawing 2223] , inhibition at 30 µM: 1 to 25%

Short answer on TNFα production in RAW 264.7 macrophage cell line for Cc1sc2c(O)nc(-c3ccccn3)nc2c1Br [drawing 2349] , inhibition at 30 µM: 0%

Short answer on TNFα production in RAW 264.7 macrophage cell line for COc1cnc(-c2cn(C)cn2)nc1O [drawing 2339] , inhibition at 30 µM: 0%

Short answer on TNFα production in RAW 264.7 macrophage cell line for Cc1nnc(C(Nc2nc(-c3ccccn3)nc3scc(-c4ccccc4)c23)c2ccccc2)n1C (stereo not drawn) [drawing 2133] , inhibition at 30 µM: 76 to 100%

Short answer on TNFα production in RAW 264.7 macrophage cell line for COc1ccc(CN(CC[S+]([O-])c2cc(Cl)ccc2Cl)C2CC2)cc1 (stereo not drawn) [drawing 2060] , inhibition at 30 µM: 1 to 25%

Short answer on TNFα production in RAW 264.7 macrophage cell line for Oc1nc(-c2ccccn2)nc2c(-c3ccccn3)csc12 [drawing 2288] , inhibition at 30 µM: 76 to 100%

Short answer on TNFα production in RAW 264.7 macrophage cell line for COC1CCN(c2nc(-c3nccn3C)nc3sc(-c4ccccc4)c(-c4ccccc4)c23)C1 (stereo not drawn) [drawing 2398] , inhibition at 30 µM: 76 to 100%

Short answer on TNFα production in RAW 264.7 macrophage cell line for COc1ccc(-c2csc3c(O)nc(-c4ccccn4)nc23)c(C)c1 [drawing 2273] , inhibition at 30 µM: 76 to 100%

Short answer on TNFα production in RAW 264.7 macrophage cell line for CC(C)(C(=O)Nc1nc(-c2ccccn2)nc2sccc12)c1ccc(C#N)cc1 [drawing 2178] , inhibition at 30 µM: 1 to 25%

Short answer on TNFα production in RAW 264.7 macrophage cell line for O=C(NCCc1cccnc1)c1csc2c(O)nc(-c3ccccn3)nc12 [drawing 2115] , inhibition at 30 µM: 0%
